# experimentalTarget: HTRA1, Q92743
# Sequence (Q92743 360-477): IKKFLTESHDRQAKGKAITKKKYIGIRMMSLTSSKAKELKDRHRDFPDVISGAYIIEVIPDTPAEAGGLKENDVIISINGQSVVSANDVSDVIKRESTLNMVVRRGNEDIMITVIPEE
# method: holdup assay
# Parameters: key: below the threshold = too weak to quantify, mostly under pKd 3.1 to 4
# conditionNotes: plain residues with an end cap or a label only (N-terminal biotin on a linker: ado-ado)
quantity: pKd

- binder: "TKGPRGPTRV [SAPCD1, Q5SSQ6]"
  pKd: "below the threshold"
- binder: "TASPAKETSF [SLC2A7, Q6PXP3]"
  pKd: "below the threshold"
- binder: "DTTVPESEDL [MYOZ2, Q9NPC6]"
  pKd: "below the threshold"
- binder: "IKAIVDLTGL [TRAF2, Q12933]"
  pKd: "below the threshold"
- binder: "QPCFNKLFPL [LPXN, O60711]"
  pKd: "below the threshold"

# ---- query binder ----
Problem: Give its pKd value. Item: TLPRKRMSSI [GPRC6A, Q5T6X5]
Result: below the threshold
